system: pancreatic cancer (8 cell lines); experiment: CellTiter-Glo Viability Assay, pancreatic cancer; assay type: cell-based; details: Homo sapiens, MIA PaCa-2, read-out: Pancreatic cancer, EC50 MIA PaCa-2
Below, each entry is listed alongside its reported pEC50.
Scale explanation: pEC50 corresponds to minus log10 of a concentration expressed in moles per litre.

Past entries and their recorded results:
molecule	pEC50
CN1CCN(c2cc(C(=O)Nc3cc4cc(-c5cnn(C)c5)ccc4cn3)ccn2)CC1 [Compound 12]	6.88
CN1CCN(C(=O)C(C)(C)c2ccc(C(=O)Nc3cn4cc(-c5ccncc5)ccc4n3)cc2)CC1 [Compound 27]	5.84

input: Respond only with pEC50 recorded for CN1CCC(N(C)c2cc(C(=O)Nc3cc4cc(-c5cnn(C)c5)ccc4cn3)ccn2)CC1 [Compound 72]
output: 7.06
